biological target: calcineurin (CN) (Homo sapiens, UniProt P63098+Q08209); assay: CN phosphatase assay (p-NPP substrate, spectrophotometric); settings: 20 mM p-NPP substrate, pH 7.4; read-out: IC50 calcineurin (CN) inhibition
Sequence (P63098 whole entry, other chains not shown): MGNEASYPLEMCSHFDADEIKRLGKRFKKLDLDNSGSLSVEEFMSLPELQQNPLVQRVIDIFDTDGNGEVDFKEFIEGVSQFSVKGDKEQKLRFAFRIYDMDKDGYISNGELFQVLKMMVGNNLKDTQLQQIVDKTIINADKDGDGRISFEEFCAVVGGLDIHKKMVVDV
measurementType: IC50 (µM)
Give the value, in units of µM, as a plain number.

**Q:** Read the entry C=C1C(C)C2C(Cc3ccccc3)NC(=O)C23C(OC(C)=O)C2C=C(C)CC(C)CC(O)C2C3C1O (stereo not shown) and write its reported IC50.
**A:** 17.9

----------
system: ConA-induced T murine splenic lymphocytes; assay: ConA-induced T-cell (splenic lymphocyte) proliferation, CCK-8; type: cell-based, BALB/c mice; conditions: Mus musculus, 48 h, read-out: IC50 ConA-Induced T-Cell Proliferation
Quick list: IC50 per entry.

Use the examples below as a reference point.
**Q:** Read the entry C=C1C(C)C2C(Cc3ccccc3)NC(=O)C23C(OC(C)=O)C2C=C(C)CC(C)CC(O)C2C3C1O (stereo not shown) [Compound 2, Phomoparagin B] and write its reported IC50.
**A:** 21.6 µM

**Q:** Read the entry C=C1C(C)C2C(Cc3ccccc3)NC(=O)C23C(OC(C)=O)C=CC(C)(O)CC(C)CC=CC3C1O (stereo not shown) [Compound 6, cytochalasin H] and write its reported IC50.
**A:** 11.2 µM

**Q:** Read the entry C=C1C(C)C2C(Cc3ccccc3)NC(=O)C23C(=O)C=CC(C)(O)CC(C)CC=CC3C1O (stereo not shown) [Compound 8, fragiformin B] and write its reported IC50.
**A:** > 200 µM

**Q:** Read the entry C=C1C(C)C2C(Cc3ccccc3)NC(=O)C23C(O)C(O)C2C(C)=CC(C)CC4OC1C3C42 (stereo not shown) [Compound 5, phomopchalasin B] and write its reported IC50.
**A:** 31.2 µM

**Q:** Read the entry C=C1C(C)C2C(Cc3ccccc3)NC(=O)C23C=C2C=C(C)CC(C)CC(O)C2C3C1O (stereo not shown) [Compound 3, Phomoparagin C] and write its reported IC50.
**A:** > 200 µM

Next:
**Q:** Read the entry C=C1C(C)C2C(Cc3ccccc3)NC(=O)C23C(O)C2C=C(C)CC(C)CC4OC1C3C42 (stereo not shown) [Compound 1, Phomoparagin A] and write its reported IC50.
**A:** > 200 µM

**Q:** Read the entry C=C1C(C)C2C(Cc3ccccc3)NC(=O)C23C(O)C2C=C(C)CC(C)CC(O)C2C3C1O (stereo not shown) [Compound 4, phomopchalasin A] and write its reported IC50.
**A:** 32.8 µM

----------
assay: Cytotoxicity / cell viability in normal splenocytes, CCK-8, 72 h; type: cell-based, BALB/c mice; details: BALB/c, mouse, mean ± SD (n = 7), read-out: Cytotoxicity IC50, murine splenocytes
Quick list: IC50 at 72 h per entry.
Give the value, in units of µM, as a plain number.

**Q:** Read the entry C=C1C(C)C2C(Cc3ccccc3)NC(=O)C23C(O)C(O)C2C(C)=CC(C)CC4OC1C3C42 (stereo not shown) [Compound 5, phomopchalasin B] and write its reported IC50 at 72 h.
**A:** 84.4

Next:
**Q:** Read the entry C=C1C(C)C2C(Cc3ccccc3)NC(=O)C23C(OC(C)=O)C2C=C(C)CC(C)CC(O)C2C3C1O (stereo not shown) [Compound 2, Phomoparagin B] and write its reported IC50 at 72 h.
**A:** 112

**Q:** Read the entry C=C1C(C)C2C(Cc3ccccc3)NC(=O)C23C(OC(C)=O)C=CC(C)(O)CC(C)CC=CC3C1O (stereo not shown) [Compound 6, cytochalasin H] and write its reported IC50 at 72 h.
**A:** 42.2

**Q:** Read the entry C=C1C(C)C2C(Cc3ccccc3)NC(=O)C23C(O)C2C=C(C)CC(C)CC(O)C2C3C1O (stereo not shown) [Compound 4, phomopchalasin A] and write its reported IC50 at 72 h.
**A:** 374
